target: MALCYP6P9a (Anopheles funestus); assay: Pyrethroid depletion (metabolism) assay with recombinant enzyme; assay type: biochemical; details: 20μM insecticide, 1 hour, vs -NADPH
Sequence (Q86QH5 entry or part of it, other chains not shown): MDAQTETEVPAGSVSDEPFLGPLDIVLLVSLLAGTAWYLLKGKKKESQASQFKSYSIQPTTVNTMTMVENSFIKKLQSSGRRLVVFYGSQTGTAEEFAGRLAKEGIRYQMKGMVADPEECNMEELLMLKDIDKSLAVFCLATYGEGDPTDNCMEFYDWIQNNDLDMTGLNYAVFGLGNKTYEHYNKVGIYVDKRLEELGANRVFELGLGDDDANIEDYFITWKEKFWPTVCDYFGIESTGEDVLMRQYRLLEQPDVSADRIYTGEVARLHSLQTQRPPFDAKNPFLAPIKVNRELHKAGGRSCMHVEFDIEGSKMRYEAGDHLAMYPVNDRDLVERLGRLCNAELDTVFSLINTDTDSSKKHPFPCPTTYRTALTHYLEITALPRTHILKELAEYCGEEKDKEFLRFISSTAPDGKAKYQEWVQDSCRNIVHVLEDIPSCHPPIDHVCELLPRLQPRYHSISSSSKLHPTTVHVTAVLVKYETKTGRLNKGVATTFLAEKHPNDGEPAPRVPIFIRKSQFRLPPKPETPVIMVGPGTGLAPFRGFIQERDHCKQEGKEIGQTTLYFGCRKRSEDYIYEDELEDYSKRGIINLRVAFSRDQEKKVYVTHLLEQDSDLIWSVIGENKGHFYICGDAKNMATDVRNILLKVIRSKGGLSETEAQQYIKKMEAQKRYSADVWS
# Percentage depletion per entry
Measured Quantity: Percentage depletion

Molecule | Measured Quantity | Observed Result
CC1(C)[C@H](C(=O)O[C@H](C#N)c2cccc(Oc3ccccc3)c2)[C@@H]1C=C(Br)Br [deltamethrin] | Percentage depletion | 68.38±1.83 %
CC1(C)[C@H](C(=O)O[C@H](C#N)c2cccc(Oc3ccccc3)c2)[C@@H]1/C=C(\Cl)C(F)(F)F (racemic) [λ-cyhalothrin] | Percentage depletion | 75.41±1.72%
CC1(C)C(C=C(Cl)Cl)C1C(=O)OCc1cccc(Oc2ccccc2)c1 (centres unmarked) [permethrin] | Percentage depletion | 65.38±1.5 %
CCOc1ccc(C(C)(C)COCc2cccc(Oc3ccccc3)c2)cc1 [etofenprox] | Percentage depletion | 46.04±1.26 %
Cc1c(COC(=O)[C@@H]2[C@H](/C=C(\Cl)C(F)(F)F)C2(C)C)cccc1-c1ccccc1 (racemic) [bifenthrin] | Percentage depletion | 60.48±2.65 %
